Provide the reported solubility of each item.
# ASSAY_DETAILS: Qualitative solubility of peptides in 0.5 N saline, pH 6.5
Where no end group is shown, it is not given here.

- SUBSTANCE: "Ac-GAQFSKTAAK [Ac-GAQFSKTAAK]"
  solubility: "> 100 mg/mL"
- SUBSTANCE: "Ac-GAQFSKTAAKGE [Ac-GAQFSKTAAKGE, GAQFSKTAAKGE]"
  solubility: "> 100 mg/mL"
- SUBSTANCE: "Ac-FSKTAAKGE-NH2 [Ac-FSKTAAKGE-NH2, FSKTAAKGE]"
  solubility: "> 100 mg/mL"
- SUBSTANCE: "Ac-AQFSKTAAKGE-NH2 [Ac-AQFSKTAAKGE-NH2, AQFSKTAAKGE]"
  solubility: "> 90 mg/mL"
- SUBSTANCE: "Ac-TAAKGEAA [Ac-TAAKGEAA, TAAKGEAA]"
  solubility: "> 230 mg/mL"

Now let's try a different one.
# query: solubility of entry Ac-GAQFSATAAA [Ac-GAQFSATAAA, GAQFSATAAA] < 10 mg/mL

---

Provide the reported solubility of each item.
# ASSAY_DETAILS: Qualitative solubility of peptides in 0.5 N saline, pH 6.5
Where no end group is shown, it is not given here.

Below are worked cases with known answers.
- SUBSTANCE: "Ac-GAQFSKTAAKGE-NH2 [Ac-GAQFSKTAAKGE-NH2, GAQFSKTAAKGE]"
  solubility: "> 60 mg/mL"
- SUBSTANCE: "Ac-GAQFSKTAAA [Ac-GAQFSKTAAA, GAQFSKTAAA]"
  solubility: "> 100 mg/mL"
- SUBSTANCE: "Ac-QFSKTAAKGE-NH2 [Ac-QFSKTAAKGE-NH2, QFSKTAAKGE]"
  solubility: "> 150 mg/mL"
- SUBSTANCE: "Ac-GAQFSKTAA [Ac-GAQFSKTAA, GAQFSKTAA]"
  solubility: "> 20 mg/mL"
- SUBSTANCE: "Ac-SKTAAKGE-NH2 [Ac-SKTAAKGE-NH2, SKTAAKGE]"
  solubility: "> 200 mg/mL"

Report solubility for each item below.
1. Ac-GAQFSKTAAAGE [Ac-GAQFSKTAAAGE, GAQFSKTAAAGE]
2. Ac-GAQFSKTAAKGA [Ac-GAQFSKTAAKGA, GAQFSKTAAKGA]
3. Ac-AAKGEA [Ac-AAKGEA, AAKGEA]
4. Ac-GAQFSKTAAKGEAAAERPGEAAVA

1. > 50 mg/mL
2. > 50 mg/mL
3. > 150 mg/mL
4. > 250 mg/mL

Report solubility for each item below.
1. Ac-KTAAKGE-NH2 [Ac-KTAAKGE-NH2, KTAAKGE]
2. Ac-GAQFSKTA [Ac-GAQFSKTA, GAQFSKTA]

> 200 mg/mL
> 200 mg/mL

---

# ASSAY_DETAILS: Qualitative solubility of peptides in 0.5 N saline, pH 6.5
Where a SMILES comes first, the peptide text is derived from it. [ ]: non-standard residue; d: D form. The star is where a group is joined. Myristoyl = CCCCCCCCCCCCCC(=O)*
Provide the reported solubility of each item.

- COMPOUND: "CCCCCCCCCCCCCC(=O)NCC(=O)N[C@@H](C)C(=O)N[C@@H](CCC(N)=O)C(=O)N[C@@H](Cc1ccccc1)C(=O)N[C@@H](CO)C(=O)N[C@@H](CCCCN)C(=O)N[C@H](C(=O)N[C@@H](C)C(=O)N[C@@H](C)C(=O)N[C@@H](CCCCN)C(=O)NCC(=O)N[C@@H](CCC(=O)O)C(=O)N[C@@H](C)C(=O)N[C@@H](C)C(=O)N[C@@H](C)C(=O)N[C@@H](CCC(=O)O)C(=O)O)[C@@H](C)O [MA-GAQFSKTAAKGEAAAE, GAQFSKTAAKGEAAAE] (Myristoyl-GAQFSKTAAKGEAAAE-OH; C-terminus assumed)"
  VAL: "> 2 mg/mL"

Now let's try a different one.
# query: solubility of entry CC(=O)NCC(=O)N[C@H](C)C(=O)N[C@H](CCC(N)=O)C(=O)N[C@H](Cc1ccccc1)C(=O)N[C@H](CO)C(=O)N[C@H](CCCCN)C(=O)N[C@@H](C(=O)N[C@H](C)C(=O)N[C@H](C)C(=O)N[C@H](CCCCN)C(=O)O)[C@H](C)O [Ac-GAQFSKTAAK (all d), GAQFSKTAAK (all d)] (Ac-G[dA][dQ][dF][dS][dK][dT][dA][dA][dK]-OH; C-terminus assumed) > 100 mg/mL
